# credit: patent US10443081B2

Target: HlyA1-IFABP fusion protein (encoded by pIAR_207, SEQ ID NO: 20; IFABP wt accession NP_037200) (Rattus norvegicus, UniProt P02693)
Construct: pIAR_207
Sequence (P02693 1-132 with tags or gaps): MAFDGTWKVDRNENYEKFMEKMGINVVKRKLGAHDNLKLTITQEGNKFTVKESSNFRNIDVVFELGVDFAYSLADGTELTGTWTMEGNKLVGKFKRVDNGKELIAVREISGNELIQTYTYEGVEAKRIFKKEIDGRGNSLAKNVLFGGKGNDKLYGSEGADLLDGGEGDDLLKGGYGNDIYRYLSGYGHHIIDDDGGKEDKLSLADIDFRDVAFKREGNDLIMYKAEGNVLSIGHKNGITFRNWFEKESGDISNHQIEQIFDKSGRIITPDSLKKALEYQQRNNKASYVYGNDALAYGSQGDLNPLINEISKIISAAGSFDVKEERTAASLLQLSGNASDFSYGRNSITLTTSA
Experiment: Fluorescence spectroscopy titration with DAUDA, refolded HlyA1-IFABP
Format: binding
Settings: refolded in the presence of Ca^2+, purified by SEC; 100 nM protein, 20 mM KH2PO4, 0.25 mM EDTA, pH 7.3; excitation 350 nm, emission 500 nm; read-out: KD for HlyA1-IFABP refolded in Ca^2+
observation-type: Kd (nM)
Give the quantity in nM, number only.

stdin: May I ask what Kd has been recorded for CN(C)c1cccc2c(S(=O)(=O)NCCCCCCCCCCC(=O)O)cccc12 [DAUDA] ?
stdout: 141
